- Tested on: BT-549 breast
- assay-explanation: NCI tumour cell line growth inhibition, 48 h; in the data active = GI50 below about 0.43 µM; inactive = the rest
Write down the outcome that applies. Available outcomes: active, inactive

Example results:
{"columns": ["molecule", "label-value"],
 "data": [
  ["c1cc(N[C@@H]2CCNC2)nc(-c2cnc3ccc(-c4cn[nH]c4)cn23)c1", "inactive"],
  ["O=C(CS(=O)(=O)c1nc2ccccc2nc1-c1ccccc1)Nc1ccc(F)cc1", "inactive"],
  ["Oc1ccc(Cl)cc1C(c1cc(Cl)ccc1O)C(Cl)(Cl)Cl", "inactive"],
  ["CCOCC1(COCC)CCC(c2[nH]ncc2CN(C)CCNC)CC1", "inactive"],
  ["COc1cc([N+](=O)[O-])c(OC)cc1-c1nc2sc(C)c(C)n2c1/C(N)=N/C(=N)N", "inactive"],
  ["C#Cc1cccc(Nc2ncnc3cc(NC(=O)CCl)ccc23)c1", "inactive"],
  ["CCOC(=O)[C@@H](C)C[C@H](Cc1ccccc1)NC(=O)c1csc([C@@H](C[C@H](C(C)C)N(C)C(=O)[C@@H](NC(=O)[C@H]2CCCCN2C)C(C)(C)CC)OC(C)=O)n1", "active"],
  ["COc1cc2c(c(OC)c1OC)-c1ccc(NN(C(=O)c3ccccc3)C(=O)c3ccccc3)c(=O)cc1[C@@H](NC(C)=O)CC2 (tested in a mixture with another compound)", "inactive"],
  ["COc1cc2cc(Oc3ccc(NC(=O)Nc4cc(C(F)(F)F)cc(C(F)(F)F)c4)cc3)c(C)nc2cc1OCCN1CCOCC1", "inactive"]
]}

Q. What did the test return for "CCN1CCN(c2nc(C)cc(N(CCCNc3ccnc4cc(Cl)ccc34)Cc3ccc4c(c3)OCO4)n2)CC1" ?
A. inactive

Numbers sourced from PubChem BioAssay (NCI).
